All values here come from PubChem BioAssay (EPA / NIEHS).

Assay: Tanguay_ZF_120hpf_YSE_legacy: (Legacy) Oregon State University Tanguay Lab 120 Hour Post-fertilization zebrafish Assay for Yolk Sac Edema (AID 2283634)
Records with an inconclusive call do not appear. Calls of active or inactive are those of the source. Rule for the calls: active = hit-call score of the fitted dose curve at least 0.9, where 1 is the maximum; inconclusive = response in the unintended direction; inactive = score below 0.9.
Possible outcomes: active, inactive

COMPOUND: COc1ccc(-n2nc(C(F)F)cc2-c2ccc(S(C)=O)cc2)cc1 (configuration not stated)
LABEL_VALUE: active
--
COMPOUND: Cc1ccc(O)cc1
LABEL_VALUE: inactive
--
COMPOUND: O=P(OC(CCl)CCl)(OC(CCl)CCl)OC(CCl)CCl
LABEL_VALUE: active
--
COMPOUND: Cn1cnc([N+](=O)[O-])c1Sc1ncnc2nc[nH]c12
LABEL_VALUE: inactive
--
COMPOUND: Cn1c(=O)c2c(ncn2C)n(C)c1=O
LABEL_VALUE: inactive
--
COMPOUND: CC(C)CC(C)(O)C#CC(C)(O)CC(C)C (configuration not stated)
LABEL_VALUE: inactive
--
COMPOUND: COc1ccc2sc(C(=O)Nc3nnn[nH]3)c(OC(C)C)c2c1
LABEL_VALUE: inactive

###

Test: CCTE_Shafer_MEA_dev_network_spike_duration_std: CCTE's Neural Network Formation Assay for Standard Deviation of Network Spike Duration, Shafer Lab (AID 2284052);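 note: area under curve of spike duration SD across recording days 5 to 12; hits are decreases in network spike duration SD versus DMSO vehicle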
Activity calls are given as the source filed them. How the source made its calls: active means hit-call score of the fitted dose curve at least 0.9, where 1 is the maximum; inactive means score below 0.9.

COMPOUND: CC[C@H]1OC(=O)[C@H](C)[C@@H](O[C@H]2C[C@@](C)(OC)[C@@H](O)[C@H](C)O2)[C@H](C)[C@@H](O[C@@H]2O[C@H](C)C[C@H](N(C)C)[C@H]2O)[C@](C)(O)C[C@@H](C)C(=O)[C@H](C)[C@@H](O)[C@]1(C)O
outcome: inactive
--
COMPOUND: CCC(C)(C)C(=O)O[C@H]1C[C@@H](C)C=C2C=C[C@H](C)[C@H](CC[C@@H]3C[C@@H](O)CC(=O)O3)[C@H]21
outcome: inactive
--
COMPOUND: COc1ccc(-n2nc(C(F)F)cc2-c2ccc(S(C)=O)cc2)cc1 (stereo not drawn)
outcome: inactive

###

Read-out: Interleukin-1 alpha (IL1a), IL1A (gene 3552)
Experiment: BSK_LPS_IL1a: BioMAP Diversity Plus: LPS Assay for Interleukin-1 alpha (IL1a) Biomarker Activity (AID 2283080)
Settings: primary human HUVEC with PBMC; actives raise or lower the signal
Active and inactive are the calls of the source. How the source made its calls: active means hit-call score of the fitted dose curve at least 0.9, where 1 is the maximum; inactive means score below 0.9.
Possible outcomes: 1.0 (active), 0.0 (inactive)

COMPOUND: C1=CCCC=CCCC=CCC1
LABEL_VALUE: 0.0
--
COMPOUND: O=C1CCCCCN1
LABEL_VALUE: 0.0
--
COMPOUND: CCOC(=O)CC(CC(=O)OCC)(OC(C)=O)C(=O)OCC
LABEL_VALUE: 0.0
--
COMPOUND: Cc1[nH]cnc1C[C@H]1CCc2c(C)c3ccccc3n2C1=O
LABEL_VALUE: 0.0
--
COMPOUND: CCCCC(CC)COC(=O)CCCCCCCCC(=O)OCC(CC)CCCC (stereo unspecified)
LABEL_VALUE: 0.0
--
COMPOUND: CC(=O)OCCC(C)C
LABEL_VALUE: 0.0
--
COMPOUND: CNS(=O)(=O)c1cc(C(=O)N2CCC(CCN3C4CCC3CC(n3c(C)nc5ccccc53)C4)(c3cccc(F)c3)CC2)c(Cl)cc1F (stereo unspecified)
LABEL_VALUE: 1.0
--
COMPOUND: C=CC(=C)CCC=C(C)C
LABEL_VALUE: 0.0
--
COMPOUND: COc1ccc2sc(C(=O)Nc3nnn[nH]3)c(OC(C)C)c2c1
LABEL_VALUE: 1.0
--
COMPOUND: O=C(NS(=O)(=O)/C=C/c1ccccc1)c1ccc(F)cc1Cl
LABEL_VALUE: 0.0
--
COMPOUND: CC(C)CCCCCCOC(=O)c1ccc(C(=O)OCCCCCCC(C)C)c(C(=O)OCCCCCCC(C)C)c1
LABEL_VALUE: 0.0

###

Read-out: Collagen III, COL3A1 (gene 1281)
Experiment: BSK_hDFCGF_CollagenIII: BioMAP Diversity Plus: hDFCGF Assay for Collagen III Biomarker Activity (AID 2283056)
Conditions: primary human foreskin fibroblasts; actives raise or lower the signal
Active and inactive are the calls of the source. Rule for the calls: active = hit-call score of the fitted dose curve at least 0.9, where 1 is the maximum; inactive = score below 0.9.
Possible outcomes: true (active), false (inactive)

COMPOUND: CCn1nc(Cc2ccccc2)cc1C1CCN(C[C@H]2C[C@H](N(C)[C@@H](C(=O)O)C(C)C)C[C@@H]2c2cccc(F)c2)CC1
LABEL_VALUE: false
--
COMPOUND: CC[C@H](C)C(=O)O[C@H]1C[C@@H](C)C=C2C=C[C@H](C)[C@H](CC[C@@H]3C[C@@H](O)CC(=O)O3)[C@H]21
LABEL_VALUE: true
--
COMPOUND: CCOC(=O)c1ccc(C2CCC(NC[C@H](O)COc3ccc(O)c(NS(C)(=O)=O)c3)CC2)cc1 (some centres undefined)
LABEL_VALUE: true
--
COMPOUND: O=C(O)CC(O)C(=O)O (centres undefined)
LABEL_VALUE: false

###

Test: CCTE_Simmons_CellTiterGLO_HEK293T: Viability Assessment in CCTE's Assays for Thyroperoxidase (TPO) Inhibition, Simmons Lab (AID 2283665)
Inconclusive results are not listed. The source made the active and inactive calls. How the source made its calls: active means hit-call score of the fitted dose curve at least 0.9, where 1 is the maximum; inconclusive means response in the unintended direction; inactive means score below 0.9.
Possible outcomes: active, inactive

MOLECULE: CCCCCCc1ccc(O)cc1O
LABEL_VALUE: active
--
MOLECULE: Nc1cccc(N)c1
LABEL_VALUE: inactive
--
MOLECULE: C=CC(=C)CCC=C(C)C
LABEL_VALUE: inactive
--
MOLECULE: O=C(O)c1cccc(N(Cc2cccnc2)c2ccc(OC(F)F)c(OC(F)F)c2)c1
LABEL_VALUE: inactive
--
MOLECULE: Cc1ccc(N)cc1O
LABEL_VALUE: inactive
--
MOLECULE: On1ccccc1=S
LABEL_VALUE: inactive
--
MOLECULE: CC(C)=CCCC(C)=CC=O
LABEL_VALUE: inactive
--
MOLECULE: CC(C)=CCCC(C)CCO (centres undefined)
LABEL_VALUE: inactive
--
MOLECULE: NC(=O)NO
LABEL_VALUE: inactive

###

Biological target: Sodium channel protein type 1 subunit alpha (Rattus norvegicus)
Assay: NVS_IC_rNaCh_site2: NovaScreen (NVS) Ion Channel Assay for rat Sodium Channel, Site 2 (NaCh) (AID 2283322);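 note: hit means loss of radioligand binding signal relative to DMSO so AC50 marks displacement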
Method: NVS_IC_rNaCh_site2 is a biochemical, single-readout assay that uses extracted gene-proteins from Rat forebrain membranes in a tissue-based cell-free assay. Measurements were taken 1 hour after chemical dosing in a 48-well plate.NVS_IC_rNaCh_site2 is one of one assay component(s) measured or calculated from the NVS_IC_rNaCh_site2 assay. […] This assay endpoint, NVS_IC_rNaCh_site2, was analyzed in the positive analysis fitting direction relative to DMSO as the negative control and baseline of activity. […]
Results filed as inconclusive are left out. Active and inactive are the calls of the source. How the source made its calls: active means hit-call score of the fitted dose curve at least 0.9, where 1 is the maximum; inconclusive means response in the unintended direction; inactive means score below 0.9.
Possible outcomes: yes (1) for active, no (0) for inactive

COMPOUND: CNS(=O)(=O)c1cc(C(=O)N2CCC(CCN3C4CCC3CC(n3c(C)nc5ccccc53)C4)(c3cccc(F)c3)CC2)c(Cl)cc1F (stereo not drawn)
LABEL_VALUE: yes (1)
//
COMPOUND: CCCCCCc1ccc(O)cc1O
LABEL_VALUE: no (0)
//
COMPOUND: COCCOc1cc2cc(C(=O)NC3CCN(C(C)C)CC3)n(CC(=O)Nc3ccc(Cl)cn3)c2cn1
LABEL_VALUE: yes (1)
//
COMPOUND: CCOC(=O)COc1ccc2c(c1)CC(NCC(O)c1cccc(Cl)c1)CC2 (stereo not drawn)
LABEL_VALUE: yes (1)
//
COMPOUND: CCc1cc(SCc2sc(-c3ccc(C(F)(F)F)cc3)nc2CN2CCN(c3ccc(OC)cc3)CC2)ccc1OCC(=O)O
LABEL_VALUE: yes (1)
//
COMPOUND: CCN(C(=O)c1cc(C)cc(OC[C@H](C)Nc2ccncc2)c1)C(C)C
LABEL_VALUE: yes (1)
//
COMPOUND: CC[C@H]1CC[C@H](NCc2cc3c(cc2OC)[C@H]2C[C@H]2C(=O)N3C)[C@H](c2ccccc2)N1
LABEL_VALUE: yes (1)
//
COMPOUND: O=C(O)CC(O)C(=O)O (stereo not drawn)
LABEL_VALUE: no (0)

###

Biological target: Peroxisome proliferator-activated receptor gamma (Homo sapiens)
Test: NVS_NR_hPPARg: NovaScreen (NVS) Nuclear Receptor Binding Assay for human Peroxisome Proliferator-activated Receptor gamma (PPARg) (AID 2283370)
Results filed as inconclusive are left out. Calls of active or inactive are those of the source. Rule for the calls: active = hit-call score of the fitted dose curve at least 0.9, where 1 is the maximum; inconclusive = response in the unintended direction; inactive = score below 0.9.

MOLECULE: CC(C)=CCCC(C)CCO (stereo unspecified)
AC50: inactive
--
MOLECULE: CCCCC(CC)COC(=O)c1ccc(C(=O)OCC(CC)CCCC)cc1 (stereo unspecified)
AC50: inactive
--
MOLECULE: O=C(O)c1cccc(Oc2ccccc2)c1
AC50: inactive
--
MOLECULE: C=CC(=C)CCC=C(C)C
AC50: inactive
--
MOLECULE: Cn1cnc([N+](=O)[O-])c1Sc1ncnc2nc[nH]c12
AC50: inactive
--
MOLECULE: CCc1cc(SCc2sc(-c3ccc(C(F)(F)F)cc3)nc2CN2CCN(c3ccc(OC)cc3)CC2)ccc1OCC(=O)O
AC50: 7.42 µM (active)
--
MOLECULE: COc1ccc2sc(C(=O)Nc3nnn[nH]3)c(OC(C)C)c2c1
AC50: 5.14 µM (active)
--
MOLECULE: CNCc1ccc(NC(=O)c2c[nH]c3c2C(=O)CCC3)cc1
AC50: 5.18 µM (active)
--
MOLECULE: CNS(=O)(=O)c1cc(C(=O)N2CCC(CCN3C4CCC3CC(n3c(C)nc5ccccc53)C4)(c3cccc(F)c3)CC2)c(Cl)cc1F (stereo unspecified)
AC50: inactive
--
MOLECULE: CC(C)c1cccc(C(C)C)c1N1C(=O)c2ccc(O)cc2C1=O
AC50: 16.1 µM (active)
--
MOLECULE: COc1cccc(-c2ccc(/C=C\CN3CCCCCC3)cc2Cl)c1
AC50: inactive
